So I've got a bunch of compounds here, and I need their pIC50 values.
target.entity: KRAS G12V (Homo sapiens (Human), UniProt P01116+P62937, G12V)
Sequence (P01116 other isoform, or with tags, fused parts or gaps G12V): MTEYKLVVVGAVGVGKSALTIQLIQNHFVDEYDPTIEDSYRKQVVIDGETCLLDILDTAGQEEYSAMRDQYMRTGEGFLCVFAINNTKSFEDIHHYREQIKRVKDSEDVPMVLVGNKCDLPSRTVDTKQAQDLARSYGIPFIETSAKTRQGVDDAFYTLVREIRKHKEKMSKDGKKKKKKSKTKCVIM
Sequence (P62937 whole entry): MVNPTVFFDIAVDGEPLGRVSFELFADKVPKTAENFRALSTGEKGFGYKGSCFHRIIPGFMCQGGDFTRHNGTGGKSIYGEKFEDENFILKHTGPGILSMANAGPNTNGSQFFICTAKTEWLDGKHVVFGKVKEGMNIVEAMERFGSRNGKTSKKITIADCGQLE
procedure.summary: Ras-Raf disruption/FRET/MOA assay (BRAF RBD, Cyclophilin A)
Type: biochemical
run.conditions: read-out: KRAS G12V FRET IC50
pIC50: −log10 of the molar value.

Below, each entry is followed by its recorded pIC50 result.
>>> recorded_measurement("CCn1c(-c2cnccc2COC)c2c3cc(ccc31)-c1cc(O)cc(c1)C[C@H](NC(=O)[C@H](C(C)C)N(C)C(=O)[C@@H]1CNC[C@@H]1C(F)(F)F)C(=O)N1CCC[C@H](N1)C(=O)OCC(C)(C)C2 [Compound A79]")
"5.00 to 6.00"
>>> recorded_measurement("CCn1c(-c2cccnc2[C@H](C)OC)c2c3cc(ccc31)-c1cc(O)cc(c1)C[C@H](NC(=O)C(C)Cc1ccncc1)C(=O)N1CCC[C@H](N1)C(=O)OCC(C)(C)C2 (some centres unmarked) [Compound A179]")
"5.00 to 6.00"

State the recorded pIC50 for every item in the following list.
1. CO[C@@H](C)c1ncccc1-c1c2c3cc(ccc3n1C)-c1cc(O)cc(c1)C[C@H](NC(=O)[C@H](C(C)C)N(C)C(C)=O)C(=O)N1CCC[C@H](N1)C(=O)OCC(C)(C)C2 [Compound A104]
2. CCn1c(-c2cccnc2[C@H](C)OC)c2c3cc(ccc31)-c1csc(n1)C[C@H](NC(=O)[C@H](C(C)C)N(C)C(=O)N1CC(C3COC3)C1)C(=O)N1CCC[C@H](N1)C(=O)OCC(C)(C)C2 [Compound A298]
3. CCn1c(-c2cccnc2[C@H](C)OC)c2c3cc(ccc31)-c1cc(O)cc(c1)C[C@H](NC(=O)[C@H](C(C)C)N(C)C(=O)C1CCC(C(F)(F)F)O1)C(=O)N1CCC[C@H](N1)C(=O)OCC(C)(C)C2 (some centres unmarked) [Compound A408]

< 5.00
6.00 to 7.00
6.00 to 7.00
